B1: mRNA-splicing (parent)
chain: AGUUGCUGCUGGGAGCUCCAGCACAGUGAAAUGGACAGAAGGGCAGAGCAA

variants of: B1; test: exon inclusion enrichment index; higher = more inclusion; WT1 exon 5 minigene, HEK293
Exercise: for every item that follows, state its recorded exon inclusion enrichment index.
Answer with the value's number alone.

Lookup result for G5C C6U G8C C9U U10C G33U G34A ; measured exon inclusion enrichment index: 0.262

Query G5C C6A U7C G8A U10A C24U A25C yields exon inclusion enrichment index of 0.98

Just so you know, measured exon inclusion enrichment index for G5C C6G U7C U10C A20U came out at 3.58

// sample G5C C6U G8C C9U U10C U27G G28A , its exon inclusion enrichment index was 2.11

// exon inclusion enrichment index value for G5A C6U U7A G8U C9A A45U G46A : 0.0424

Recorded result, G5C C6G U7C U10C G43U , exon inclusion enrichment index: 2.89

So, C6G U7C C9A U10A ? Its exon inclusion enrichment index was 0.988

Per the records, this variant ( G15U C16G ) has exon inclusion enrichment index equal to 0.0648

Just so you know, measured exon inclusion enrichment index for G5U G8U C9U G42U G43U came out at 0.409

# exon inclusion enrichment index (variant: C6A U7A C9A U10A G21U C22U ) is 0.172

// G5C C6A U7C G8A U10A A14U G15C : exon inclusion enrichment index value = 0.0301

Recorded exon inclusion enrichment index (variant G5C C6A U7C G8A U10A G34C ): 0.0202

For record G5C C6G U7C U10C G15A C16A the listed exon inclusion enrichment index is 3.14

The recorded exon inclusion enrichment index for G5C C6U G8C C9U U10C G28A A29U is 0.475

Value of measured exon inclusion enrichment index for the entry G5C C6G U7C U10C C16U U17A : 3.78

Measured exon inclusion enrichment index of U4C C6G U7G C9A : 0.355

Per the record, G5A C6G U7G C9A A45U has exon inclusion enrichment index of 0.00141

According to the records, this variant G5A C6G U7G C9A A20U displays exon inclusion enrichment index of 0.00146

For reference, reported exon inclusion enrichment index for G41U G42U stands at 0.192

For C6A U7A C9A U10A A25C the variant record lists exon inclusion enrichment index as 2.61

// recorded exon inclusion enrichment index for U3C U4C G5C C6U G8C C9U U10C : 0.521

Sample G5C C6U G8C C9U U10C A39U A40C ; exon inclusion enrichment index observed: 2.16

exon inclusion enrichment index reported for this variant G5A C6U U7A G8U C9A A37G G38C : 0.113

get_value(item= G5U G8U C9U A25C , readout=exon inclusion enrichment index) returns 0.793

Reported exon inclusion enrichment index for G5A C6U U7A G8U C9A A47G was 0.0115

Briefly, exon inclusion enrichment index measured for G5A U7C G8A U10C G41U G42C : 2.97

For this variant ( G5C C6A U7C G8A U10A G46C ), measured exon inclusion enrichment index is 0.0718

Input U3A U4C G5C C6U G8C C9U U10C . Output exon inclusion enrichment index: 2.23

Notebook: G5A U7C G8A U10C G41A , exon inclusion enrichment index read as 1.44

Note to self: exon inclusion enrichment index recorded for G5C C6G U7C C9A U10C was 4

exon inclusion enrichment index reading for G5A U7C G8A U10C A47G G48A : 1.37

exon inclusion enrichment index reading for G5C C6A U7C U10A : 0.259

Documented exon inclusion enrichment index of U4G G5A C6U G8C C9U U10C : 1.22

Field exon inclusion enrichment index (entry G5C C6U G8U C9U ) reads 0.106

get_value(item= G5U G8U C9U G41C G42A , readout=exon inclusion enrichment index) returns 0.229
